Parameter growth inhibition: see the listing below.
test: NCI Yeast Anticancer Drug Screen. Data for the rad50 strain (AID 155);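 further: 0% = growth of vehicle-only cultures of the same strain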; conditions: S. cerevisiae rad50 strain growth inhibition; at 5.0 µM (retest, dose inferred, filed as 0.5); active compounds read high
This is part of a sample that, as a whole, favours compounds with a hit. Of some 79,000 tested, about 15% had one in any assay.
Express your answer in %, writing the number without its unit.

[
  {
    "MOLECULE": "CSCCl",
    "ENDPOINT_RESULT": 3
  },
  {
    "MOLECULE": "c1ccc(N=c2nc(N3CCOCC3)ss2)cc1",
    "ENDPOINT_RESULT": 19
  },
  {
    "MOLECULE": "S=P(Nc1ccccc1)(Nc1ccccc1)Nc1ccccc1",
    "ENDPOINT_RESULT": 21
  },
  {
    "MOLECULE": "O=S(=O)(O)/C(=C\\c1ccccc1)c1ccccc1 (tested in a mixture with another compound)",
    "ENDPOINT_RESULT": 15
  },
  {
    "MOLECULE": "CC(C(=O)C1CCCCC1)[n+]1ccccc1 (stereo unspecified)",
    "ENDPOINT_RESULT": 1
  },
  {
    "MOLECULE": "[Cl][Hg][CH2]CC1CC=CCC1 (stereo unspecified)",
    "ENDPOINT_RESULT": 99
  },
  {
    "MOLECULE": "CC(=O)O/C(=C1\\C[C@H]2[C@@H]3CC=C4C[C@@H](OC(C)=O)CC[C@]4(C)[C@H]3CC[C@]2(C)C1=O)C(F)(F)F",
    "ENDPOINT_RESULT": 18
  },
  {
    "MOLECULE": "Fc1ccc(NP(=S)(Nc2ccc(F)cc2F)Nc2ccc(F)cc2F)c(F)c1",
    "ENDPOINT_RESULT": 33
  }
]

[ask] Quick one: growth inhibition of Clc1c(CI)ccc(CI)c1Cl ?
[reply] 22

[ask] Try this molecule next: O=C(c1ccccc1)C1CCCN(CCc2ccccc2)C1 (stereo unspecified)
[reply] 54

[ask] Cool, now Nc1c(Br)cc(Br)c2c1C(=O)c1ccccc1C2=O
[reply] 5

[ask] And for c1ccc(C(C(=Nc2ccc(Cc3ccc(N=C(C(c4ccccc4)c4ccccc4)N4CC4)cc3)cc2)N2CC2)c2ccccc2)cc1 ?
[reply] 5

====

test: NCI Yeast Anticancer Drug Screen. Data for the mec2-1 strain (AID 157); conditions: S. cerevisiae mec2-1 strain, at 5.0 µM (retest, dose inferred, filed as 0.5), active compounds read high
This is part of a sample that, as a whole, favours compounds with a hit. Of some 79,000 tested, about 15% had one in any assay.
MEASURED_PARAMETER: growth inhibition (%)
Your answer is read as %, so omit the unit and give the number.

[
  {
    "COMPOUND": "Oc1cccc[c]1[Hg][Cl]",
    "U": "%",
    "growth inhibition": 99
  },
  {
    "COMPOUND": "O=C1OC2C(O1)C1(Cl)C(Cl)=C(Cl)C2(Cl)C1(Cl)Cl (stereo not drawn)",
    "U": "%",
    "growth inhibition": 3
  },
  {
    "COMPOUND": "CCOC(=O)C1CC12c1ccccc1-c1ccccc12 (stereo not drawn)",
    "U": "%",
    "growth inhibition": -6
  },
  {
    "COMPOUND": "Nc1ccccc1C(=O)OCCc1ccccc1",
    "U": "%",
    "growth inhibition": 38
  },
  {
    "COMPOUND": "C[CH2][Sn]([Cl])([CH2]C)[O][Sn]([Cl])([CH2]C)[CH2]C",
    "U": "%",
    "growth inhibition": 4
  }
]

[ask] Name the recorded growth inhibition for N#CC(C#N)=Cc1ccc(C#N)cc1 .
[reply] -47

[ask] Another compound to look at: COc1cc(C=Nc2cc(Br)c(OC)c(Br)c2)ccc1N(CCCl)CCCl
[reply] -12

[ask] Next up: c1ccc2c(c1)[As]=c1ccccc1=[As]2 (stereo not drawn)
[reply] 95

[ask] Param item: O=[N+]([O-])c1cccc(N=Cc2ccc(N(CCCl)CCCl)cc2)c1
[reply] 2

Values from PubChem BioAssay (NCI)
